- System: SF-268 CNS
- method: NCI-60 one-dose screen, 48 h (100 = growth as untreated, 0 = no growth, -100 = all killed)
- condition_summary: 10 µM unless noted
Compounds without any hit were thinned out: in the full panel of roughly 83,000, 20% have a hit.
Measured growth, listed per entry.
The answer is to be given in %; state only the numeric part.

Below are worked cases with known answers.
>>> print(df.to_string())
                                   compound  value_measured
0  O=C(CSc1nc2ccc([N+](=O)[O-])cc2[nH]1)Nc1ccc([N+](=O)[O-])cc1              27
1       Nc1nc2ccccc2c2c(=O)c3cccc(Cl)c3sc12             102

[Q] Any idea what growth was measured for N#CC1=C(c2ccccc2)Nc2c(c(-c3ccc(Cl)cc3)nn2-c2ccccc2)C12C(=O)Nc1ccc(Cl)cc12 (stereo not given) ?
[A] 55.3

[Q] Same thing, different compound: `O=[N+]([O-])c1cccc(-c2nc3cc4nc5ccccc5[nH]c4cc3n2)c1`
[A] 98.2

[Q] Ok, now `O=C1NC(=C(Cl)Cl)/C(=N\S(=O)(=O)NCc2ccccc2)N1`
[A] 102

[Q] Now try `COc1ccc(-c2ccc(-c3ccc(C(=N)N)cc3)s2)cc1Cl` .
[A] 20

[Q] Try the compound `CC(C)(Sc1cc(C(C)(C)C)c(OC(=O)CCCC(=O)O)c(C(C)(C)C)c1)Sc1cc(C(C)(C)C)c(OC(=O)CCCC(=O)O)c(C(C)(C)C)c1`
[A] 28.6

[Q] Same read-out for CC(C)=CCCC(C)c1ccc(C)c2c1OCN(CCCCCO)C2 (stereo not given) ?
[A] 97.5

[Q] Moving on to the next compound: `c1csc(-c2ccc(CNc3c4ccccc4nc4ccccc34)cc2)c1`
[A] 62.9

[Q] Try this compound too: `CCC(=O)Oc1ccc(-c2ccccc2)cc1Br`
[A] 103
